Target: AURKB (MV4-11^AURKB-HiBiT cells) (Homo sapiens, UniProt Q96GD4)
Construct: expressed in transfected cells; host or cells: MV4-11, lentiviral transduction (pRRL-PGK vector)
Sequence (Q96GD4 1-345 isoform Q96GD4-5): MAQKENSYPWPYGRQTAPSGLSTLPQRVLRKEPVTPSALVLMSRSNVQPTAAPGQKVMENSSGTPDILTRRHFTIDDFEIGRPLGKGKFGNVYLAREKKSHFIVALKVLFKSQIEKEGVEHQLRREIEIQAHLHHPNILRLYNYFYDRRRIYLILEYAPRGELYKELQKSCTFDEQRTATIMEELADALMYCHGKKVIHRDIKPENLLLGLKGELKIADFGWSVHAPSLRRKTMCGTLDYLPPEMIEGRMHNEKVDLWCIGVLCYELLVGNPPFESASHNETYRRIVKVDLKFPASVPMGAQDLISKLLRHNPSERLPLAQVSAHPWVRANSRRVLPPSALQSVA
Experiment: HiBiT assay, AURKB degradation
Type: cell-based
Settings: 6 h treatment, read-out: Dmax (maximal degradation) AURKB
readoutKind: Dmax

Asked: # Dmax lookup, item CC(C)S(=O)(=O)c1ccccc1Nc1nc(Nc2ccc(N3CCNCC3)cc2)nc2[nH]cnc12
Given back: 70.2%

Asked: # input molecule: COc1cc(N2CCNCC2)ccc1Nc1nc(Nc2ccccc2S(=O)(=O)C(C)C)c2nc[nH]c2n1 ; wanted: its Dmax
Given back: 40.9%

Asked: Could you tell me which Dmax is on file for COc1cc(N2CCC(O)CC2)ccc1Nc1nc(Nc2ccccc2S(=O)(=O)C(C)C)c2nc[nH]c2n1 [MPS1-IN-3, reference compound] ?
Given back: 43.3%

Asked: Reported Dmax for c1nc2c(NC3CCCCC3)nc(Nc3ccc(N4CCNCC4)cc3)nc2[nH]1 [azareversine, reference compound] : what is it?
Given back: 44.5%
